Catalogue of compounds with associated combination Emax
tested on: LoVo (Colorectal Carcinoma); test: combination Emax (second highest fraction inhibited in the dose matrix, 72 h); higher = more inhibition; extreme values may be limits of the assay
Just the number.

# count of solved cases: 2
{"columns": ["COMPOUND", "NUMERIC_RESULT"],
 "data": [
  ["COc1nnc2ccc(N3CCC(c4ccc(OCCN5CCN(C)C(=O)[C@H]5C)cc4)CC3)nn12 [AZD5153] + C[C@@H]1COCCN1C2=NC(=NC(=C2)C3(CC3)[S@](=N)(=O)C)C4=C5C=CNC5=NC=C4 [AZD6738] (first compound max 1 µM, 7x7, partner max 10 µM)", 0.814],
  ["Cc1c2c(nn1C)CSCc1cc(n(C)n1)CSc1cc(c3ccccc3c1)OCCCc1c(C(=O)O)n(C)c3c-2c(Cl)ccc13 [AZD5991] + C1CN(CCC1(C(=O)N[C@@H](CCO)C2=CC=C(C=C2)Cl)N)C3=NC=NC4=C3C=CN4 [Capivasertib] (first compound max 1 µM, 7x7, partner max 3 µM)", 0.625]
]}

Next compound, combination Emax to be filled in.
Challenge: Entry under review: CC1(C)CCC(CN2CCN(c3ccc(C(=O)NS(=O)(=O)c4ccc(NCC5CCOCC5)c([N+](=O)[O-])c4)c(Oc4cnc5[nH]ccc5c4)c3)CC2)=C(c2ccc(Cl)cc2)C1 [Venetoclax] + COc1cc(Nc2ncc3c(n2)-c2ccc(Cl)cc2C(c2c(F)cccc2OC)=NC3)ccc1C(=O)O [Alisertib] (first compound max 1 µM, 7x7, partner max 10 µM) . Reported combination Emax?
Response given: 0.48

###

Examples of compounds with documented combination Emax follow.
tested on: CAPAN-1 (Pancreatic Carcinoma); assay: combination Emax (second highest fraction inhibited in the dose matrix, 72 h); higher = more inhibition; extreme values may be limits of the assay
Output: the number by itself.

{"columns": ["COMPOUND", "combination Emax"],
 "data": [
  ["CCN(CCO)CCCOc1ccc2c(Nc3cc(CC(=O)Nc4cccc(F)c4)[nH]n3)ncnc2c1 [AZD2811] + C[C@@H]1COCCN1C2=NC(=NC(=C2)C3(CC3)[S@](=N)(=O)C)C4=C5C=CNC5=NC=C4 [AZD6738] (first compound max 1 µM, 7x7, partner max 10 µM)", 0.442]
]}

Let's switch to this compound now.
Challenge: Given the entry N#Cc1cnc(Nc2cc(NC[C@H]3CNCCO3)c(C(F)(F)F)cn2)cn1 [SRA737] + Nc1ccn([C@@H]2O[C@H](CO)[C@@H](O)C2(F)F)c(=O)n1 [Gemcitabine] (first compound max 10 µM, 7x7, partner max 0.3 µM) , report its measured combination Emax.
Response given: 0.657

###

Here, each record is paired with measured combination Emax data.
system: SW1271 (Small Cell Lung Carcinoma); experiment: combination Emax (second highest fraction inhibited in the dose matrix, 72 h); higher = more inhibition; extreme values may be limits of the assay
// return a plain number; no unit text

Check out these entries, answers already filled in.
{"columns": ["MOLECULE", "combination Emax"],
 "data": [
  ["Cc1cc2ncnn2cc1Nc1ncc2c(n1)n(C1CCOCC1)c(=O)n2C [AZD7648] + O=C(c1cc(Cc2n[nH]c(=O)c3ccccc23)ccc1F)N1CCN(C(=O)C2CC2)CC1 [Olaparib] (first compound max 10 µM, 7x7, partner max 10 µM)", 0.24],
  ["COc1cccc(OCCCN)c1-c1cc(Nc2cnc(C#N)cn2)n[nH]1 [Prexasertib] + C[C@@H]1COCCN1C2=NC(=NC(=C2)C3(CC3)[S@](=N)(=O)C)C4=C5C=CNC5=NC=C4 [AZD6738] (first compound max 1 µM, 7x7, partner max 10 µM)", 0.719],
  ["Cc1c2c(nn1C)CSCc1cc(n(C)n1)CSc1cc(c3ccccc3c1)OCCCc1c(C(=O)O)n(C)c3c-2c(Cl)ccc13 [AZD5991] + CN(C)CCCOc1ccc(-c2ccc3ncc4c(c3c2)n(C2CCOCC2)c(=O)n4C)cn1 [AZD0156] (first compound max 1 µM, 7x7, partner max 1 µM)", 0.27]
]}

Moving on to the next molecule.
Challenge: Would you mind telling me what combination Emax value was observed for CC(=O)c1c(C)c2cnc(Nc3ccc(N4CCNCC4)cn3)nc2n(C2CCCC2)c1=O [Palbociclib] + Cn1cnc2c(F)c(Nc3ccc(Br)cc3Cl)c(C(=O)NOCCO)cc21 [Selumetinib] (first compound max 10 µM, 7x7, partner max 10 µM) ?
Response given: 0.428

###

system: KARPAS-231 (B-Cell Non-Hodgkin's Lymphoma); experiment: Bliss excess, mean over the matrix (fraction); higher = more synergy
Listed next: entries and their corresponding Bliss excess.

{"columns": ["COMPOUND", "ASSAY_SYSTEM", "Bliss excess"],
 "data": [
  ["CCN(CCO)CCCOc1ccc2c(Nc3cc(CC(=O)Nc4cccc(F)c4)[nH]n3)ncnc2c1 [AZD2811] + C[C@@H]1COCCN1C2=NC(=NC(=C2)C3(CC3)[S@](=N)(=O)C)C4=C5C=CNC5=NC=C4 [AZD6738] (first compound max 1 µM, 7x7, partner max 10 µM)", "KARPAS-231 (B-Cell Non-Hodgkin's Lymphoma)", 0.0064],
  ["CN(C)CCCOc1ccc(-c2ccc3ncc4c(c3c2)n(C2CCOCC2)c(=O)n4C)cn1 [AZD0156] + O=C(c1cc(Cc2n[nH]c(=O)c3ccccc23)ccc1F)N1CCN(C(=O)C2CC2)CC1 [Olaparib] (first compound max 3 µM, partner max 3 µM)", "KARPAS-231 (B-Cell Non-Hodgkin's Lymphoma)", 0.0651]
]}

Here's the next entry for you.
Challenge: Entry under review: CC1(C)CCC(CN2CCN(c3ccc(C(=O)NS(=O)(=O)c4ccc(NCC5CCOCC5)c([N+](=O)[O-])c4)c(Oc4cnc5[nH]ccc5c4)c3)CC2)=C(c2ccc(Cl)cc2)C1 [Venetoclax] + CN(C)CCCOc1ccc(-c2ccc3ncc4c(c3c2)n(C2CCOCC2)c(=O)n4C)cn1 [AZD0156] (first compound max 1 µM, 7x7, partner max 1 µM) . Reported Bliss excess?
Response given: -0.0599

###

system: RT-112 (Bladder Carcinoma); assay: Bliss excess, mean over the matrix (fraction); higher = more synergy
MEASUREMENT_NAME: Bliss excess
The answer should be a number; do not append a unit.

{"columns": ["MOLECULE", "ASSAY_SYSTEM", "NUMERIC_RESULT"],
 "data": [
  ["CC1(C)CCC(CN2CCN(c3ccc(C(=O)NS(=O)(=O)c4ccc(NCC5CCOCC5)c([N+](=O)[O-])c4)c(Oc4cnc5[nH]ccc5c4)c3)CC2)=C(c2ccc(Cl)cc2)C1 [Venetoclax] + C[C@@H]1COCCN1C2=NC(=NC(=C2)C3(CC3)[S@](=N)(=O)C)C4=C5C=CNC5=NC=C4 [AZD6738] (first compound max 1 µM, 7x7, partner max 10 µM)", "RT-112 (Bladder Carcinoma)", 0.0228],
  ["CC(=O)Nc1cccc(-n2c(=O)n(C3CC3)c(=O)c3c(Nc4ccc(I)cc4F)n(C)c(=O)c(C)c32)c1 [Trametinib] + Cc1nc(-c2cn3c(n2)-c2ccc(-c4cnn(C(C)(C)C(N)=O)c4)cc2OCC3)n(C(C)C)n1 [Taselisib] (first compound max 1 µM, 7x7, partner max 10 µM)", "RT-112 (Bladder Carcinoma)", 0.106],
  ["Cc1cc2ncnn2cc1Nc1ncc2c(n1)n(C1CCOCC1)c(=O)n2C [AZD7648] + C=CCn1c(=O)c2cnc(Nc3ccc(N4CCN(C)CC4)cc3)nc2n1-c1cccc(C(C)(C)O)n1 [AZD1775] (first compound max 10 µM, partner max 1 µM)", "RT-112 (Bladder Carcinoma)", 0.0239],
  ["CC1(C)CCC(CN2CCN(c3ccc(C(=O)NS(=O)(=O)c4ccc(NCC5CCOCC5)c([N+](=O)[O-])c4)c(Oc4cnc5[nH]ccc5c4)c3)CC2)=C(c2ccc(Cl)cc2)C1 [Venetoclax] + COc1cc(Nc2ncc3c(n2)-c2ccc(Cl)cc2C(c2c(F)cccc2OC)=NC3)ccc1C(=O)O [Alisertib] (first compound max 1 µM, 7x7, partner max 10 µM)", "RT-112 (Bladder Carcinoma)", -0.0323]
]}

Challenge: Look up Bliss excess for this molecule: CC1(C)CCC(CN2CCN(c3ccc(C(=O)NS(=O)(=O)c4ccc(NCC5CCOCC5)c([N+](=O)[O-])c4)c(Oc4cnc5[nH]ccc5c4)c3)CC2)=C(c2ccc(Cl)cc2)C1 [Venetoclax] + C[C@@H](Nc1cc(F)cc(F)c1)c1cc(C(=O)N(C)C)cc2c(=O)cc(N3CCOCC3)oc12 [AZD8186] (first compound max 1 µM, 7x7, partner max 3 µM)
Response given: -0.0197

Challenge: Reported Bliss excess for NC1(C(=O)N[C@@H](CCO)c2ccc(Cl)cc2)CCN(c2ncnc3[nH]ccc23)CC1 [Capivasertib] + CCN(CCO)CCCOc1ccc2c(Nc3cc(CC(=O)Nc4cccc(F)c4)[nH]n3)ncnc2c1 [AZD2811] (first compound max 10 µM, 7x7, partner max 1 µM) : what is it?
Response given: -0.0152

Challenge: Which Bliss excess value belongs to CCc1c2c(nc3ccc(O)cc13)-c1cc3c(c(=O)n1C2)COC(=O)[C@]3(O)CC [SN-38] + O=C(c1cc(Cc2n[nH]c(=O)c3ccccc23)ccc1F)N1CCN(C(=O)C2CC2)CC1 [Olaparib] (first compound max 0.3 µM, 7x7, partner max 10 µM) ?
Response given: 0.116
